Sourced from patent US20260000676A1

# experimental target: ER (Homo sapiens (Human), UniProt P03372)
# Sequence (P03372 whole entry): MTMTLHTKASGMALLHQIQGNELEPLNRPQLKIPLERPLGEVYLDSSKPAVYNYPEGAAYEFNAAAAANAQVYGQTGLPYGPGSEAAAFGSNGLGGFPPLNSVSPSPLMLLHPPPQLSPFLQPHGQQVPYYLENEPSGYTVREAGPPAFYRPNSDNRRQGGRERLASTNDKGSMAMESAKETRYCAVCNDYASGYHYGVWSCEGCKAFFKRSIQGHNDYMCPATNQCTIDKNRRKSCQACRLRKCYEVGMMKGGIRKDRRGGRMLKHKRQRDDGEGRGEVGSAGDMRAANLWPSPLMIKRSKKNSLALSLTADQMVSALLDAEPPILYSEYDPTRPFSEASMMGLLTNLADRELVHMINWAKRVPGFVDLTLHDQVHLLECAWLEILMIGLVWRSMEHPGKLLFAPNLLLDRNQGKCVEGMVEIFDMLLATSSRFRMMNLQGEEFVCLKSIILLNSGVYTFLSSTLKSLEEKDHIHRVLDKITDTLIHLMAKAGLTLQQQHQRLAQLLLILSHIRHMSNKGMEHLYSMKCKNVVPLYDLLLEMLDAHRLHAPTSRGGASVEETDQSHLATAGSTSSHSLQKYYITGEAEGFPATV
# assay protocol: In-cell western (ICW) ER degradation assay in T47D cells
# Assay type: cell-based
# settings: ER degradation, 16 hrs
endpoint label: DC50

What the record says about O=C1CCC(N2Cc3cc4c(cc3C2=O)OC[C@@H]2CN(CC3CCN(c5ccc([C@H]6c7ccc(O)cc7OC[C@H]6c6ccccc6)cn5)CC3)CCN42)C(=O)N1 (single isomer, unassigned) : DC50 is 1 to 10 nM

DC50 reported for this molecule O=C1CC[C@@H](N2Cc3c(ccc4c3OC[C@H]3CN(CC5CC6(CCN(c7ccc([C@@H]8c9ccc(O)cc9OC[C@@H]8c8ccccc8)cc7)CC6)C5)CCN43)C2=O)C(=O)N1 (single isomer, unassigned) : < 1 nM

For this molecule ( O=C1CCC(N2Cc3c(ccc4c3OCC43CCN(CC4COC5(CCN(c6ccc([C@H]7c8ccc(O)cc8OC[C@H]7c7ccccc7)cc6)CC5)C4)CC3)C2=O)C(=O)N1 (stereo partly drawn) ), measured DC50 is 1 to 10 nM

###

# experimental target: ER (Homo sapiens (Human))
# assay protocol: In-cell western (ICW) ER degradation assay in MCF-7 cells
# Format: cell-based
# settings: MCF7, maximal ER degradation, MCF7, 16 hrs
endpoint label: Dmax

Looking up Cc1nn(C2CCC(=O)NC2=O)c2ccc(N3CCN(CC4CCN(c5ccc([C@@H]6c7ccc(O)cc7OC[C@@H]6c6ccccc6)cc5F)CC4)CC3)cc12 (single isomer, unassigned) , I found its Dmax recorded as 25 to 50%

Sample O=C1CC[C@H](N2Cc3c(ccc4c3OC[C@H]3CN(CC5CCC6(CC5)CN(c5ccc([C@@H]7c8ccc(O)cc8OC[C@@H]7c7ccccc7)cc5)C6)CCN43)C2=O)C(=O)N1 (single isomer, unassigned) ; Dmax observed: ≥ 75%

###

Could you please report measured DC50 for the items listed next?
# experimental target: ER (Homo sapiens (Human), UniProt P03372)
# assay protocol: In-cell western (ICW) ER degradation assay in MCF-7 cells
# Type: cell-based
# settings: ER degradation, MCF7, 16 hrs

The compound listed as COc1cc(N2CCC3(CC2)CC(CN2CCN4c5ccc6c(c5OC[C@@H]4C2)CN([C@@H]2CCC(=O)NC2=O)C6=O)C3)c(F)cc1[C@@H]1c2ccc(O)cc2OC[C@@H]1c1ccccc1 (single isomer, unassigned) [Compound A125] has a reported DC50 of < 1 nM

O=C1CCN(c2ccc(N3CCC4(CC3)CC(CN3CCN(c5ccc([C@@H]6c7ccc(O)cc7OC[C@@H]6c6ccccc6)cc5)CC3)C4)cc2)C(=O)N1 [Compound A112] yielded DC50 of > 100 nM

Record COc1cc(N2CCC3(CC2)CC(CN2CCN4c5ccc6c(c5OC[C@@H]4C2)CN([C@@H]2CCC(=O)NC2=O)C6=O)C3)c(F)cc1[C@H]1c2ccc(O)cc2OC[C@H]1c1ccccc1 [Compound A126] . Reported DC50: 1 to 10 nM

For this compound ( O=C1CC[C@@H](NC(=O)c2ccc(N3CCC(CN4CC5(CCN(c6ccc([C@H]7c8ccc(O)cc8OC[C@H]7c7ccccc7)cc6)CC5)C4)CC3)cn2)C(=O)N1 (single isomer, unassigned) [Compound A111] ), measured DC50 is < 1 nM

Short answer for O=C1CCC(NC(=O)c2ccc(N3CCN(CC4CCN(c5ccc([C@H]6c7ccc(O)cc7OC[C@H]6c6ccccc6)cc5F)CC4)CC3)cn2)C(=O)N1 (single isomer, unassigned) [Compound A100] : DC50 was 1 to 10 nM

Looking up COc1cc(N2CCC(CN3CCC4(CC3)COc3cc5c(cc34)CN(C3CCC(=O)NC3=O)C5=O)CC2)ccc1[C@H]1c2ccc(O)cc2OC[C@H]1c1ccccc1 (stereo partly shown) [Compound A136] , I found its DC50 recorded as < 1 nM

Per the records, this compound ( COc1cc(N2CCC(CN3CCN(c4cnc(C(=O)NC5CCC(=O)NC5=O)cc4OC)CC3)CC2)ccc1[C@H]1c2ccc(O)cc2OC[C@H]1c1ccccc1 (single isomer, unassigned) [Compound A127] ) has DC50 equal to < 1 nM

Form: compound = O=C1CCC(NC(=O)c2ccc(N3CCC(CN4CCN(c5ccc([C@H]6c7ccc(O)cc7OC[C@H]6c6ccccc6)cc5)CC4)CC3)cn2)C(=O)N1 (single isomer, unassigned) [Compound A128] ; DC50 = < 1 nM

// O=C1CC[C@@H](N2Cc3c(ccc4c3OCC43CCN(CC4CCC5(CC4)CN(c4ccc([C@H]6c7ccc(O)cc7OC[C@H]6c6ccccc6)cc4)C5)CC3)C2=O)C(=O)N1 [Compound A154] : DC50 value = < 1 nM

Field DC50 (entry O=C1CCC(N2Cc3cc4c(cc3C2=O)OCC42CCN(CC3CC4(CCN(c5ccc([C@H]6c7ccc(O)cc7OC[C@H]6c6ccccc6)cn5)CC4)C3)CC2)C(=O)N1 (stereo partly shown) [Compound A123] ) reads < 1 nM

###

# experimental target: CRBN/DDB1 (Homo sapiens (Human))
# Sequence (Q96SW2 whole entry): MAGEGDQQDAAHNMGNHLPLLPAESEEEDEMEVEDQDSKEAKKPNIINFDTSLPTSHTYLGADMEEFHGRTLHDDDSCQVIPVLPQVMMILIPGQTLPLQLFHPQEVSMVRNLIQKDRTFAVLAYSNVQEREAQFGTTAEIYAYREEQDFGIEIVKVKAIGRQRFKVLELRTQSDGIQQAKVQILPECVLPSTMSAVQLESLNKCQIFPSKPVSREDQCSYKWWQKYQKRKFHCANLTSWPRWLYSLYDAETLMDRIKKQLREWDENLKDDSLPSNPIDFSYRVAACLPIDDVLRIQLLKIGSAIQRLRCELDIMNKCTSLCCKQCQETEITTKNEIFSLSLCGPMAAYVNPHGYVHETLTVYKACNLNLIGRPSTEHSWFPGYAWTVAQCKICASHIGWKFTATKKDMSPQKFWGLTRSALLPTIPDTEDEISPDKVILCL
# Sequence (Q16531 whole entry partner): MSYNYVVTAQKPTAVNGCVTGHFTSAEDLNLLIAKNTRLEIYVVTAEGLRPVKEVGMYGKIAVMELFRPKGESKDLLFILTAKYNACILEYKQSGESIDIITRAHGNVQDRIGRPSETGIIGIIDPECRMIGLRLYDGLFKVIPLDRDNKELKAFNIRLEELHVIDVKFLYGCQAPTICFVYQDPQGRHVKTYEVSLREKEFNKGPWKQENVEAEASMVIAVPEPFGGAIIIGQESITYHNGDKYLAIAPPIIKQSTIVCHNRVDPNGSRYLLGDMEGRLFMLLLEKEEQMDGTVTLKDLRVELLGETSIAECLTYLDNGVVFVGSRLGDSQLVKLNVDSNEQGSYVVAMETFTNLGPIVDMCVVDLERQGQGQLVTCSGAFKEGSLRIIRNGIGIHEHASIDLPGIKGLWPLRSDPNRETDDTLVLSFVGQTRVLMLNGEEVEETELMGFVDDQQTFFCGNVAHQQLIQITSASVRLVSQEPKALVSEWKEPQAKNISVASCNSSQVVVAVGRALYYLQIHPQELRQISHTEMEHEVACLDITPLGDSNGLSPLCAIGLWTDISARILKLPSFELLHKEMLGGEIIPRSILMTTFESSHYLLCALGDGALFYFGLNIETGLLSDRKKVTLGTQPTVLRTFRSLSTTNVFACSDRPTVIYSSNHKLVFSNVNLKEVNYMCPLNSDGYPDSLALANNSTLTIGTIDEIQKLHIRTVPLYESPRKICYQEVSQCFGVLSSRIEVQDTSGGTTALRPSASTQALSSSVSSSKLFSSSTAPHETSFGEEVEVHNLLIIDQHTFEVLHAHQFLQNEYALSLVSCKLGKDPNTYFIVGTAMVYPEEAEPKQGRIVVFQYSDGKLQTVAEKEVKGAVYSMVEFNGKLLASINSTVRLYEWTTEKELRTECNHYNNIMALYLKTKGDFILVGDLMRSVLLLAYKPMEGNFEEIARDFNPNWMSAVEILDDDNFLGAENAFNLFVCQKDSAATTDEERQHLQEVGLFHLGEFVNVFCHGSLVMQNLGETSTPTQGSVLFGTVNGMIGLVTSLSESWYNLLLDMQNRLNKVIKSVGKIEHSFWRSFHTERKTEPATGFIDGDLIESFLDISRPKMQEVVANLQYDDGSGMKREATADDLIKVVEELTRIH
# assay protocol: HTRF binding assay to CRBN/DDB1
# settings: read-out: CRBN HTRF IC50
pIC50: −log10 of the molar value. Structures can show the parent of a compound that is named as a salt.
endpoint label: pIC50

O=C1CC[C@@H](N2Cc3c(ccc4c3OC[C@@H]3CN(C[C@@H]5COC6(CCN(c7ccc([C@H]8c9ccc(O)cc9OC[C@H]8c8ccccc8)cc7F)CC6)C5)CCN43)C2=O)C(=O)N1 [Compound A155] has a reported pIC50 of > 7.30

Form field pIC50, entry O=C1CCC(N2C(=O)c3cc4c(cc3C2=O)CN(C(=O)CN2CCC3(CC2)CN(c2ccc([C@@H]5c6ccc(O)cc6OC[C@@H]5c5ccccc5)cc2)C3)C4)C(=O)N1 (stereo partly drawn) [Compound A47] : 5.30 to 6.30

Sample O=C1CCC(Nc2ccc3c(c2)OC[C@H]2CN(CC4CCN(c5ccc([C@@H]6c7ccc(O)cc7OC[C@@H]6c6ccccc6)cc5)CC4)CCN32)C(=O)N1 (single isomer, unassigned) [Compound A91, hydrochloride] ; pIC50 observed: < 5.30

Just so you know, measured pIC50 for COC[C@H](C(=O)N1Cc2cc3c(cc2C1)C(=O)N(C1CCC(=O)NC1=O)C3)N1CCC2(CCN(c3ccc([C@@H]4c5ccc(O)cc5OC[C@@H]4c4ccccc4)cc3)CC2)CC1 (single isomer, unassigned) [Compound A60] came out at 6.30 to 7.30

get_value(item= O=C1CCC(N2Cc3cc(N4CCN(CC5CC6(CCN(c7ccc([C@H]8c9ccc(O)cc9OC[C@H]8c8ccccc8)cn7)CC6)C5)CC4)ccc3C2=O)C(=O)N1 (stereo partly drawn) [Compound A98] , readout=pIC50) returns 6.30 to 7.30

For this compound ( O=C1CC[C@@H](N2Cc3cc4c(cc3C2=O)OC[C@@H]2CN(C[C@H]3COC5(CCN(c6ccc([C@H]7c8ccc(O)cc8OC[C@H]7c7ccccc7)cc6)CC5)C3)CCN42)C(=O)N1 [Compound A152] ), measured pIC50 is 6.30 to 7.30

Given item O=C1CCC(N2Cc3cc4c(cc3C2=O)CN(C(=O)CN2CC3(CCN(c5ccc([C@H]6c7ccc(O)cc7OC[C@H]6c6ccccc6)cc5)CC3)C2)C4)C(=O)N1 (stereo partly drawn) [Compound A56, formate] , the value recorded as its pIC50 is 6.30 to 7.30

Documented pIC50 of O=C1CC[C@H](N2Cc3c(ccc4c3OC[C@H]3CN(CC5CC6(CCN(c7ccc([C@@H]8c9ccc(O)cc9OC[C@@H]8c8ccccc8)cc7)CC6)C5)CCN43)C2=O)C(=O)N1 (single isomer, unassigned) [Compound A90] : < 5.30

The recorded pIC50 for CC(C(=O)N1Cc2cc3c(cc2C1)C(=O)N(C1CCC(=O)NC1=O)C3=O)N1CCC2(CCN(c3ccc([C@H]4c5ccc(O)cc5OC[C@H]4c4ccccc4)cc3)CC2)CC1 (single isomer, unassigned) [Compound A57] is < 5.30

Short answer for O=C1CCC(N2C(=O)c3cc4c(cc3C2=O)CN(C(=O)C2CCN(C3CCN(c5ccc([C@H]6c7ccc(O)cc7OC[C@H]6c6ccccc6)cc5)CC3)CC2)C4)C(=O)N1 (single isomer, unassigned) [Compound A78] : pIC50 was 5.30 to 6.30

So for O=C1CC[C@@H](Nc2ccc(C3CCN(C[C@@H]4COC5(CCN(c6ccc([C@@H]7c8ccc(O)cc8OC[C@@H]7c7ccccc7)cc6)CC5)C4)CC3)c(F)c2)C(=O)N1 (single isomer, unassigned) [Compound A165] , the logged pIC50 turned out to be 6.30 to 7.30

pIC50 recorded for this compound, O=C1CCC(N2C(=O)c3cc4c(cc3C2=O)CN(C(=O)CN2CC3(CCN(c5ccc([C@H]6c7ccc(O)cc7OC[C@H]6c6ccccc6)cc5)CC3)C2)C4)C(=O)N1 (single isomer, unassigned) [Compound A55, formate] , is 5.30 to 6.30

GET /value?item= COc1nc(C(=O)NC2CCC(=O)NC2=O)ccc1N1CCN(CC2CCC3(CC2)CN(c2ccc([C@@H]4c5ccc(O)cc5OC[C@@H]4c4ccccc4)cc2)C3)CC1 (single isomer, unassigned) [Compound A108] &field=pIC50 returns 5.30 to 6.30

Record O=C1CCN(c2ccc(N3CCN(CC4CCN(c5ccc([C@@H]6c7ccc(O)cc7OC[C@@H]6c6ccccc6)cc5)CC4)CC3)cc2)C(=O)N1 (single isomer, unassigned) [Compound A82] . Reported pIC50: 5.30 to 6.30

Record O=C1CCC(N2C(=O)c3cc4c(cc3C2=O)CN(CC(=O)N2CC3(CCN(c5ccc([C@H]6c7ccc(O)cc7OC[C@H]6c6ccccc6)cc5)CC3)C2)C4)C(=O)N1 (single isomer, unassigned) [Compound A39] . Reported pIC50: 6.30 to 7.30

Looking up O=C1CCC(N2Cc3cc4c(cc3C2=O)OC[C@@H]2CN(CC3CCN(c5ccc([C@H]6c7ccc(O)cc7OC[C@H]6c6ccccc6)cc5)CC3)CCN42)C(=O)N1 (stereo partly drawn) [Compound A11] , I found its pIC50 recorded as < 5.30

Note to self: pIC50 recorded for O=C1CCC(N2Cc3c(ccc4c3OC[C@@H]3CN(CC5CCN(c6ccc([C@@H]7c8ccc(O)cc8OC[C@@H]7c7ccccc7)cc6F)CC5)CCN43)C2=O)C(=O)N1 (single isomer, unassigned) [Compound A6] was 6.30 to 7.30

The reported value for Cn1c(=O)n(C2CCC(=O)NC2=O)c2ccc(C3CCN(CC4CC5(CCN(c6ccc([C@@H]7c8ccc(O)cc8OC[C@@H]7c7ccccc7)cc6)CC5)C4)CC3)cc21 (single isomer, unassigned) [Compound A73] in terms of pIC50 is > 7.30
